Target: T1, full length human GLP-1R with N-terminal FLAG tag and C-terminal GFP tag, on CHO cells (human, UniProt P43220 24-463)
T1 construct: whole, on cells; the cell line itself is tied to UniProt P43220; also called FLAG-GLP-1R-GFP; CHO-GLP-1R
Test: flow cytometry, expressing vs parent CHO cells
MEASUREMENT_NAME: MFI Ratio

[[record]]
binder = "GLP1R-221-092 (antibody, V domains shown, IgG) VH: QVQLVESGGGVVQPGRSLRLSCAASGFIFNNYGMHWVRQAPGKGLEWVAFISYGGSNKYYADSVKGRFTISRDNSKNTLYLQMNSLRAEDTAVYYCAKHMSMQEGAVTGEGQAVKEFIAWLVKGRVRADLVGDAFDVWGQGTLVTVSS VL: QSVLTQPPSVSAAPGQKVTISCSGTTSNIANNFVSWYQQLPGTAPKLLIYDNNKRPPGIPDRFSGSKSGTSATLGITGLQTGDEADYYCGTWDTSLSVGMFGGGTKLTVL"
readout_value = 712

[[record]]
binder = "GLP1R-221-075 (antibody, V domains shown, IgG) VH: QVQLVESGGGVVQPGRSLRLSCAASGFTFSNYPMHWVRQAPGKGLEWVAVISYDETNKYYADSVKGRFTISRDNSKNTLYLQMNSLRAEDTAVYYCAKHMSMQEGAVTGEGQAAKEFIAWLVKGIVRADLVGDAFDVWGQGTLVTVSS VL: QSVLTQPPSVSAAPGQKVTISCSGSGSNIGNNDVSWYQQLPGTAPKLLIYDNDKRPAGIPDRFSGSKSGTSATLGITGLQTGDEADYYCGTWDTSLSNYVFGGGTKLTVL"
readout_value = 1170

